# System: Plasmodium berghei
# PROTOCOL NOTES: Screen against P. berghei liver stage (PbLuc), transformed with Luciferase, at 10uM
# Type: functional, HepG2
# PROTOCOL CONDITIONS: tested at 10 uM
About 8,600 (12%) of roughly 69,000 compounds showed an effect of 50% or more. This excerpt belongs to a sample that is enriched for strong results.
MEASURED ATTRIBUTE: INHIBITION (%)
Express your answer in %, writing the number without its unit.

{"columns": ["CHEM SMILES", "ASSAYED TARGET", "INHIBITION (%)"],
 "data": [
  ["COc1c(CNCCNC(=O)c2ccc(C)cc2)c(C(C)C)nn1C", "Plasmodium berghei", -79.3],
  ["O=c1[nH]c(NCc2cccc(OC(F)F)c2)nc2c1CCNC2", "Plasmodium berghei", 88],
  ["CC(C)(C)c1ccc(OCc2nc3c(c(=O)[nH]2)CCNC3)cc1", "Plasmodium berghei", -13.3]
]}

Q) For the compound shown here, CN(C)c1cccc(C(=O)Nc2cn(C)c(=O)n(C)c2=O)c1 , give the reported INHIBITION.
A) 31.2

Q) Endpoint output: INHIBITION of COc1cc(CNc2nc3c(c(=O)[nH]2)CCNC3)cc(OC)c1OC . Value?
A) 57.8

Q) Fill in the blank: the reported INHIBITION of COc1c(CNCCNC(=O)c2ccc(C)cc2)c(C)nn1C is ____.
A) 52.7
